Experiment: NCI Yeast Anticancer Drug Screen. Data for the mec2-1 strain (AID 157)
Details: S. cerevisiae mec2-1 strain, at 5.0 µM (retest, dose inferred, filed as 0.5), hits give high values
The panel holds about 79,000 compounds, 15% with a hit somewhere; the sample as a whole holds those more often. Active and inactive are the calls of the source. No stated cut-off is given here; in the data, active means growth inhibition above about 70%; inactive means the rest.
experimental_readout: growth inhibition

Task item: Output measured growth inhibition for this item: `CC(C)Cc1ncc(CC(C)C)n(O)c1=O`
Reply: 26% (inactive)

Task item: Output measured growth inhibition for this item: `S=C(NC(=S)Nc1ccc(Cl)cc1)Nc1ccc(Cl)cc1`
Reply: 1% (inactive)

Task item: Output measured growth inhibition for this item: `Cc1ccc(SSCCCCCS(=O)O)cc1`
Reply: 4% (inactive)
